Target or system UniProtKB P06493; recorded quantity IC50.
Sequence (P06493 whole entry): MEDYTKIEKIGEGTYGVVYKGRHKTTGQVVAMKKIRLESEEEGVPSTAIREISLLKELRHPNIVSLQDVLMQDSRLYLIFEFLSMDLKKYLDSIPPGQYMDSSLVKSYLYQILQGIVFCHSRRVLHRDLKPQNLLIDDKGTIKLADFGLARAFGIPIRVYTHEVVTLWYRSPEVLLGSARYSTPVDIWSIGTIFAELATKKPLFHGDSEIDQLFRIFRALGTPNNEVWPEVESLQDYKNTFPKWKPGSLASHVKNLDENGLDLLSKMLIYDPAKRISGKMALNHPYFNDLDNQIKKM
Sequence (P14635 whole entry partner): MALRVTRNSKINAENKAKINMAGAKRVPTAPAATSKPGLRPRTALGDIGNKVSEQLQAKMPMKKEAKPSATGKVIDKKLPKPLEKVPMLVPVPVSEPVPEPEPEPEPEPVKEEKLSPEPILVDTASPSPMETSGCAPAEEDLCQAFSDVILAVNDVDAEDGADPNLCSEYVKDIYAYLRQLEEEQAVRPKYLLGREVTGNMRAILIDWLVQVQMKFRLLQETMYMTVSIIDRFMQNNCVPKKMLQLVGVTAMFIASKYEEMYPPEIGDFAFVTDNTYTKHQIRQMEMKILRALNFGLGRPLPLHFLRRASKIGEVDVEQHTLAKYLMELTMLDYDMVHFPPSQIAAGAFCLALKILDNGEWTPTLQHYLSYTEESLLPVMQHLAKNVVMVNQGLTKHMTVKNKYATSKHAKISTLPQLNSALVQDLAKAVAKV
Quick note: give the figure in nM, leave out the unit.

Compound	Test Target	IC50 [nM]
Cc1nn(C2CCNCC2)cc1Nc1ncc(F)c(-c2cc(F)c3c(c2)N(C(C)C)CCO3)n1	UniProtKB P06493	94

Please look at the following molecule next.
Request: // output IC50; input `CCN1CCC(COc2ccc(Nc3cc(-c4cc(F)c5c(c4)N(C(C)C)CCO5)c(F)cn3)nc2)CC1` ; system UniProtKB P06493
Result: 200

###

Target or system CDK6 (Homo sapiens, UniProt Q00534); recorded quantity IC50.
Quick note: give the figure in nM, leave out the unit.

Compound	IC50 / nM
CC(C)N1CCOc2c(F)cc(-c3nc(NC4CCN(S(C)(=O)=O)CC4)ncc3F)cc21	9

Please look at the following compound next.
Request: // output IC50; input `CC(C)N1CCOc2c(F)cc(-c3nc(Nc4ccc(N5CCN(C)C(=O)C5)cn4)ncc3F)cc21` ; system CDK6 (Homo sapiens, UniProt Q00534)
Result: 3

###

system: DU4475; assay: Cancer cell proliferation assay as a single agent (cell viability); type: cell-based; settings: Homo sapiens, DU-4475; Table 4; Rb negative breast carcinoma; 144H treatment
Observed Property: pIC50
Would you please state pIC50, meaning minus log10 of the concentration in mol/L, as a bare number?

Compound	pIC50
CC(C)N1CCOc2c(F)cc(-c3nc(Nc4ccc(N5CCN(C)C(=O)C5)cn4)ncc3F)cc21	5.94
Cc1nn(C2CCNCC2)cc1Nc1ncc(F)c(-c2cc(F)c3c(c2)N(C(C)C)CCO3)n1	6.89

Please look at the following compound next.
Request: Supply measured pIC50 of `CC(C)N1CCOc2c(F)cc(-c3nc(NC4CCN(S(C)(=O)=O)CC4)ncc3F)cc21` in your reply.
Result: 6.64

###

target: PI3Kδ (Homo sapiens)
Sequence (O00329 whole entry): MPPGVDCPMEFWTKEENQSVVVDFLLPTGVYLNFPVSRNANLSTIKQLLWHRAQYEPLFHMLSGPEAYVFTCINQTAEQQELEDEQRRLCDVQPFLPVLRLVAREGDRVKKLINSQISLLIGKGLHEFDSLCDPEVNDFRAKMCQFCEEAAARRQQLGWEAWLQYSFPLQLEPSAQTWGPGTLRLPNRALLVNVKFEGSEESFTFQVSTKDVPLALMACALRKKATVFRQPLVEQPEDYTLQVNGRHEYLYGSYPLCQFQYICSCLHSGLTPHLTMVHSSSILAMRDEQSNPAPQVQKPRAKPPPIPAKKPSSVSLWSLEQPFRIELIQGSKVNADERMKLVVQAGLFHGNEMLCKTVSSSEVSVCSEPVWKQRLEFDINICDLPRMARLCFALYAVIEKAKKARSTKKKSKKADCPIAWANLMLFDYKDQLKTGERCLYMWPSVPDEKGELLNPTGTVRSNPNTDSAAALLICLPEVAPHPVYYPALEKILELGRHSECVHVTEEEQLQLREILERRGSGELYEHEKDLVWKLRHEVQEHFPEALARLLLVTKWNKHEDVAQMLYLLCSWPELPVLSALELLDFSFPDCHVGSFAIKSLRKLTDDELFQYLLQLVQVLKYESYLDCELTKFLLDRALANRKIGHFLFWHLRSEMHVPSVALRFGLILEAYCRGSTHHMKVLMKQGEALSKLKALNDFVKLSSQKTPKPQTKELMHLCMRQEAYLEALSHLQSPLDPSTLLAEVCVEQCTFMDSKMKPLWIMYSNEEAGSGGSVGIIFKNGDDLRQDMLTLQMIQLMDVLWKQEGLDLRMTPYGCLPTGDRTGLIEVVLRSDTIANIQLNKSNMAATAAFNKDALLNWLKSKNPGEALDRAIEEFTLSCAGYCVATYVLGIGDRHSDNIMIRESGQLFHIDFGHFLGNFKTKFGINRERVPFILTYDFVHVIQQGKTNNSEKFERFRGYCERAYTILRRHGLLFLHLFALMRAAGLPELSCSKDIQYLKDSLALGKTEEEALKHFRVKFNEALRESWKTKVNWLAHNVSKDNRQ
Sequence (P27986 whole entry partner): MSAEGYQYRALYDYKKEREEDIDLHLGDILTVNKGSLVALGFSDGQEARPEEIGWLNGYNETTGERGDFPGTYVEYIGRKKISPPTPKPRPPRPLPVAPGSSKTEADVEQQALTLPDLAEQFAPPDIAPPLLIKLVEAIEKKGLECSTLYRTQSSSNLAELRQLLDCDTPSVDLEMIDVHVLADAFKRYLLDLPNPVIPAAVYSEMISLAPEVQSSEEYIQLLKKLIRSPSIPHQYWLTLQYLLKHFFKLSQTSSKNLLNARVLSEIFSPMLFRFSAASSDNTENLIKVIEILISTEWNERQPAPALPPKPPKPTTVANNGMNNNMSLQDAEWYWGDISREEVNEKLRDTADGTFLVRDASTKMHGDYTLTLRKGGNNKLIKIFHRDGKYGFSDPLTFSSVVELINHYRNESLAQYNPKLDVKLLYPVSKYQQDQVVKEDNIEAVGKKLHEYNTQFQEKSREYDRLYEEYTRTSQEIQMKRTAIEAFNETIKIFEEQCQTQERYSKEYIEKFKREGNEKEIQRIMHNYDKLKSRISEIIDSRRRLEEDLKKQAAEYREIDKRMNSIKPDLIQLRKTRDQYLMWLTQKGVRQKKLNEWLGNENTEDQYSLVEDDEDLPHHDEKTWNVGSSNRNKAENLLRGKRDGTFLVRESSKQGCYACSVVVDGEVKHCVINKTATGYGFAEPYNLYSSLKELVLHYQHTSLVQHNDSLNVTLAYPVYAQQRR
pIC50: −log10 of the molar value.
Observed Property: pIC50

Request: Supply measured pIC50 of `CCN1CCC(COc2ccc(Nc3ncc(F)c(-c4cc(F)c5c(c4)N(C(C)C)CCO5)n3)nc2)CC1` in your reply.
Result: < 4.30

###

target: CDK2 (cyclin A) (Homo sapiens)
Observed Property: pIC50
Would you please state pIC50, meaning minus log10 of the concentration in mol/L, as a bare number?

Request: // output pIC50; input `CCN1CCC(COc2ccc(Nc3ncc(F)c(-c4cc(F)c5c(c4)N(C(C)C)CCO5)n3)nc2)CC1` ; system CDK2 (cyclin A) (Homo sapiens)
Result: 6.68

###

system: DU4475; test: Cancer cell proliferation assay as a single agent (cell viability); format: cell-based; conditions: Homo sapiens, DU-4475; Table 4; Rb negative breast carcinoma; 144H treatment
Could you please mark 1 (yes) for values of IC50 below 700 nM and 0 (no) for values at or above it?

The examples below pair each entry with its known result.
Molecule	Group Label
CC(C)N1CCOc2c(F)cc(-c3nc(Nc4ccc(N5CCNC(=O)C5)cn4)ncc3F)cc21 [Compound 85]	0 (no)
CC(C)N1CCOc2c(F)cc(-c3nc(Nc4cc(N5CCCNCC5)ccn4)ncc3F)cc21 [Compound 2]	0 (no)
CCN1CCC(COc2ccc(Nc3ncc(F)c(-c4cc(F)c5c(c4)N(C(C)C)CCO5)n3)nc2)CC1 [Compound 3]	1 (yes)

Request: Threshold test, IC50 < 700 nM: CCN1CCC(COc2ccc(Nc3cc(-c4cc(F)c5c(c4)N(C(C)C)CCO5)c(F)cn3)nc2)CC1 [Compound 4]
Result: 1 (yes)

Request: Threshold test, IC50 < 700 nM: CC(C)N1CCOc2c(F)cc(-c3nc(Nc4cccc(N5CCCNCC5)c4)ncc3F)cc21 [Compound 1]
Result: 1 (yes)
